Ref: patent US9102665B2

Target: Leukotriene, Cysteinyl CysLT1 (Cavia porcellus, UniProt Q2NNR5)
Construct: from tissue; host or cells: guinea pig lung membrane
Assay: receptor radio-ligand-binding assay (Tritiated LTD4 as the ligand), Guinea pig lung membrane
Conditions: 0.5 h; 10 nM test compound; 0.2 nM 3H LTD4, Guinea pig lung membrane; read-out: % Inhbition (in nM) 10
recorded_metric: inhibition at 0.01 µM (%)
Numeric only. Scale: %

> print(dat)
                                   molecule                             tested.system  value.reported
1  O=C(O)c1cc(Cl)ccc1CCC1(c2cccc(/C=C/c3ccc4ccc(Cl)cc4n3)c2)OCCO1  Leukotriene, Cysteinyl CysLT1 (Cavia porcellus, UniProt Q2NNR5)              91

# input molecule: CS(=O)(=O)NC(CCc1ccccc1C(=O)O)c1cccc(/C=C/c2ccc3ccc(Cl)cc3n2)c1 (stereo not shown) ; wanted: its inhibition at 0.01 µM
71

Queued: CC(ON=C(CCc1ccccc1C(C)(C)O)c1cccc(/C=C/c2ccc3ccc(Cl)cc3n2)c1)C(=O)O (stereo not shown)
31

Queued: C#CCOc1ccc(CCC2(c3cccc(/C=C/c4ccc5ccc(Cl)cc5n4)c3)OCCO2)c(C(=O)O)c1
60

* * *

Molecular target: Leukotriene, Cysteinyl CysLT1 (Cavia porcellus, UniProt Q2NNR5)
Construct: from tissue; host or cells: guinea pig lung membrane
Sequence (Q2NNR5 1-340): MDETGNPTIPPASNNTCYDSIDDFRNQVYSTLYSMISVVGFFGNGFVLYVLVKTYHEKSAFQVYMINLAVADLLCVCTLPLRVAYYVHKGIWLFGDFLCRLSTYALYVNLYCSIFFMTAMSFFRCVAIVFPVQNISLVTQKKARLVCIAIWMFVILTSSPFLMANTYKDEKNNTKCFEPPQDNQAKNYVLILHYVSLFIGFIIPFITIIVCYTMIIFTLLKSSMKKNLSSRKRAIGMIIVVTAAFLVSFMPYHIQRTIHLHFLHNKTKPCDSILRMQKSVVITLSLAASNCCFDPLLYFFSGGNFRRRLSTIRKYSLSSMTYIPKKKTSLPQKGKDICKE
Experiment: receptor radio-ligand-binding assay (Tritiated LTD4 as the ligand), Guinea pig lung membrane
Settings: 0.5 h; 3 nM test compound; 0.2 nM 3H LTD4, Guinea pig lung membrane; read-out: % Inhbition (in nM) 3
recorded_metric: inhibition at 0.003 µM (%)
Numeric only. Scale: %

Take a look at these entries with their results.
> print(dat)
                                   compound  value.reported
1  O=C(O)c1ccccc1OCC(OCCc1cccs1)c1cccc(/C=C/c2ccc3ccc(Cl)cc3n2)c1 (stereo not shown)              56
2  CS(=O)(=O)NC(CCc1ccccc1C(=O)O)c1cccc(/C=C/c2ccc3ccc(Cl)cc3n2)c1 (stereo not shown)              56
3  O=C(O)c1ccc(C(=O)O)c(CCC2(c3cccc(/C=C/c4ccc5ccc(Cl)cc5n4)c3)OCCO2)c1              49

# input compound: CN(C(=O)c1ccco1)C(CCc1ccccc1C(=O)O)c1cccc(/C=C/c2ccc3ccc(Cl)cc3n2)c1 (stereo not shown) ; wanted: its inhibition at 0.003 µM
61

* * *

Target: Leukotriene, Cysteinyl CysLT1 (Cavia porcellus)
Construct: from tissue; host or cells: guinea pig lung membrane
Sequence (Q2NNR5 1-340): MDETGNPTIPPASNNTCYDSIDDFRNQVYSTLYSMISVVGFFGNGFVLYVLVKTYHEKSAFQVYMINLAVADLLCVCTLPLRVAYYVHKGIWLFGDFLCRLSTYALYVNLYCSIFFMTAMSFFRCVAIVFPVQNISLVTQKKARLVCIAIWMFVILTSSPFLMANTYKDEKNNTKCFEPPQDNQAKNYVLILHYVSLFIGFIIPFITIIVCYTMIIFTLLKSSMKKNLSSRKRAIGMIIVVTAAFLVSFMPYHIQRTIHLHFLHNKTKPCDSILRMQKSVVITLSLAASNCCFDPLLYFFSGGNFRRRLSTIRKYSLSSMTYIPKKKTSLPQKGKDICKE
Experiment: receptor radio-ligand-binding assay (Tritiated LTD4 as the ligand), Guinea pig lung membrane
Settings: 0.5 h; 10 nM test compound; 0.2 nM 3H LTD4, Guinea pig lung membrane; read-out: % Inhbition (in nM) 10
Record Fulfilled whenever inhibition at 0.01 µM is at 70% or higher; record Not fulfilled when lower.

Would you please look over these solved cases?
> print(dat)
                                   compound                             tested.system  category.label
1  COc1ccc(CCC2(c3cccc(/C=C/c4ccc5ccc(Cl)cc5n4)c3)OCCO2)c(C(=O)O)c1 [Ib.67]  Leukotriene, Cysteinyl CysLT1 (Cavia porcellus)       Fulfilled
2  CC1(C)COC(CCc2ccccc2C(=O)O)(c2cccc(/C=C/c3ccc4ccc(Cl)cc4n3)c2)OC1 [Ib.26]  Leukotriene, Cysteinyl CysLT1 (Cavia porcellus)   Not fulfilled
3  C#CCOC(COc1ccccc1C(=O)O)c1cccc(/C=C/c2ccc3ccc(Cl)cc3n2)c1 (centres unmarked) [Ia.127]  Leukotriene, Cysteinyl CysLT1 (Cavia porcellus)       Fulfilled
4  COc1cc(C(=O)O)c(CCC2(c3cccc(/C=C/c4ccc5ccc(Cl)cc5n4)c3)OCCO2)c(OC)c1OC [Ib.113]  Leukotriene, Cysteinyl CysLT1 (Cavia porcellus)       Fulfilled

Reported inhibition at 0.01 µM reaches at least 70% for C#CCO[C@H](COc1ccc(OC)cc1C(=O)O)c1cccc(/C=C/c2ccc3ccc(Cl)cc3n2)c1 [Ia.185] ?
Fulfilled

Queued: O=C(O)c1ccccc1CCC(NC(=O)C(F)(F)F)c1cccc(/C=C/c2ccc3ccc(Cl)cc3n2)c1 (centres unmarked) [Ia.12]
Not fulfilled

Queued: COc1ccc(C=CC2(c3cccc(/C=C/c4ccc5ccc(Cl)cc5n4)c3)OCCO2)c(C(=O)O)c1 [Ib.79]
Fulfilled

* * *

Biological target: Leukotriene, Cysteinyl CysLT1 (Cavia porcellus)
Construct: from tissue; host or cells: guinea pig lung membrane
Sequence (Q2NNR5 1-340): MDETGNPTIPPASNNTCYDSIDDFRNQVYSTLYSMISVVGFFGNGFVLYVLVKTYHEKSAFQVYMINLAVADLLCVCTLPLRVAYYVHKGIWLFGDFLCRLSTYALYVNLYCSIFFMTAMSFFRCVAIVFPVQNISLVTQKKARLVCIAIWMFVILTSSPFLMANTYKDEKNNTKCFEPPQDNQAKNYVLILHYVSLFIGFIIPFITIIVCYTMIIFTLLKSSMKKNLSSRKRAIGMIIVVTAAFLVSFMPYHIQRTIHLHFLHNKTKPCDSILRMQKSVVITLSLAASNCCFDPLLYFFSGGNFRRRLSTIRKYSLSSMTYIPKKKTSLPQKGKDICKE
Assay: receptor radio-ligand-binding assay (Tritiated LTD4 as the ligand), Guinea pig lung membrane
Details: 0.5 h; 1 nM test compound; 0.2 nM 3H LTD4, Guinea pig lung membrane; read-out: % Inhbition (in nM) 1
Grouping key: inhibition at 0.001 µM. Bins: low range (below 40%), mid range (40% to below 50%), high range (50% or more)

> print(dat)
                                   molecule                             tested.system  category.label
1  O=C(O)c1ccc(C(=O)O)c(CCC2(c3cccc(/C=C/c4ccc5ccc(Cl)cc5n4)c3)OCCO2)c1  Leukotriene, Cysteinyl CysLT1 (Cavia porcellus)       low range
2  CCOC(CSc1ncccc1C(=O)O)c1cccc(/C=C/c2ccc3ccc(Cl)cc3n2)c1 (stereo not shown)  Leukotriene, Cysteinyl CysLT1 (Cavia porcellus)       mid range
3  COc1ccc(C=CC2(c3cccc(/C=C/c4ccc5ccc(Cl)cc5n4)c3)OCCO2)c(C(=O)O)c1  Leukotriene, Cysteinyl CysLT1 (Cavia porcellus)      high range
4  CC(=O)OC(CSc1ccccc1C(=O)O)c1cccc(/C=C/c2ccc3ccc(Cl)cc3n2)c1 (stereo not shown)  Leukotriene, Cysteinyl CysLT1 (Cavia porcellus)       low range
5  O=C(O)c1cc(Cl)ccc1CCC1(c2cccc(/C=C/c3ccc4ccc(Cl)cc4n3)c2)OCCO1  Leukotriene, Cysteinyl CysLT1 (Cavia porcellus)      high range
6  COc1cc(C(=O)O)c(CCC2(c3cccc(/C=C/c4ccc5ccc(Cl)cc5n4)c3)OCCCO2)cc1[N+](=O)[O-]  Leukotriene, Cysteinyl CysLT1 (Cavia porcellus)      high range

Which inhibition at 0.001 µM category applies to COC(=O)c1ccccc1CCC(NC(=O)C1=C(C(=O)O)CCC1)c1cccc(/C=C/c2ccc3ccc(Cl)cc3n2)c1 (stereo not shown) here?
mid range

Queued: O=C(O)c1cc2c(cc1CCC1(c3cccc(/C=C/c4ccc5ccc(Cl)cc5n4)c3)OCCO1)OCCO2
low range

Queued: CC(ON=C(CCc1ccccc1C(C)(C)O)c1cccc(/C=C/c2ccc3ccc(Cl)cc3n2)c1)C(=O)O (stereo not shown)
low range

Queued: Cc1oc(=O)oc1COC(=O)c1ccccc1CCC1(c2cccc(/C=C/c3ccc4ccc(Cl)cc4n3)c2)OCCO1
low range

Queued: COc1cc(C(=O)O)c(CCC2(c3cccc(/C=C/c4ccc5ccc(Cl)cc5n4)c3)OCCO2)c(OC)c1OC
mid range

Queued: CCOC(COc1ccc(OC)cc1C(=O)O)c1cccc(/C=C/c2nc3ccccc3s2)c1 (stereo not shown)
low range

Queued: COc1ccc(CCC2(c3cccc(/C=C/c4ccc5ccc(Cl)cc5n4)c3)OCCO2)c(-c2nnn[nH]2)c1
high range
